Assay: Inhibition of mouse liver microsome CYP3A4 at 3 uM after 10 mins by luminescence assay
Type: ADME
Conditions: microsomes
RECORDED METRIC: inhibition (INH) (%)
One number for each entry, in %.

# example entries with known answers
MOLECULE: COc1cccc(CCSc2nc(N3CCOCC3)c3c(c2C#N)CC(C)(C)OC3)c1
QUANTITATIVE READOUT: 29
//
MOLECULE: CC1CN(c2nc(SCCc3ccc(NC(=O)C(F)(F)F)cc3)c(C#N)c3c2COC(C)(C)C3)CC(C)O1 (centres undefined)
QUANTITATIVE READOUT: 66
//
MOLECULE: COc1ccc(CCSc2nc(N3CCOCC3)c3c(c2C#N)CC(C)(C)OC3)cc1OC
QUANTITATIVE READOUT: 49
//
MOLECULE: CC1CN(c2nc(SCCc3ccc(NC(=N)N)cc3)c(C#N)c3c2COC(C)(C)C3)CC(C)O1 (centres undefined)
QUANTITATIVE READOUT: 9
//
MOLECULE: CC(=O)Nc1ccc(CCSc2nc(N3CC(C)OC(C)C3)c3c(c2C#N)CC(C)(C)OC3)cc1 (centres undefined)
QUANTITATIVE READOUT: 61
//
MOLECULE: CC1CN(c2nc(SCCc3cccnc3)c(C#N)c3c2COC(C)(C)C3)CC(C)O1 (centres undefined)
QUANTITATIVE READOUT: 0
//
MOLECULE: CC1CN(c2nc(SCCc3ccc(NC(=O)OC(C)(C)C)cc3)c(C#N)c3c2COC(C)(C)C3)CC(C)O1 (centres undefined)
QUANTITATIVE READOUT: 0
//
MOLECULE: COCCN1CCN(c2nc(SCCc3ccc(OC)c(OC)c3)c(C#N)c3c2COC(C)(C)C3)CC1
QUANTITATIVE READOUT: 48

Fill blank: measured inhibition (INH) of the molecule `COCCN1CCN(c2nc(SCCc3ccccn3)c(C#N)c3c2COC(C)(C)C3)CC1` is ____. 14
